assay: self-splicing fitness, log relative to wild type (ln ratio); higher = more splicing; Tetrahymena group I intron in knt gene, E. coli kanamycin selection, DiMSum; sequences stand for … in CUCUCU…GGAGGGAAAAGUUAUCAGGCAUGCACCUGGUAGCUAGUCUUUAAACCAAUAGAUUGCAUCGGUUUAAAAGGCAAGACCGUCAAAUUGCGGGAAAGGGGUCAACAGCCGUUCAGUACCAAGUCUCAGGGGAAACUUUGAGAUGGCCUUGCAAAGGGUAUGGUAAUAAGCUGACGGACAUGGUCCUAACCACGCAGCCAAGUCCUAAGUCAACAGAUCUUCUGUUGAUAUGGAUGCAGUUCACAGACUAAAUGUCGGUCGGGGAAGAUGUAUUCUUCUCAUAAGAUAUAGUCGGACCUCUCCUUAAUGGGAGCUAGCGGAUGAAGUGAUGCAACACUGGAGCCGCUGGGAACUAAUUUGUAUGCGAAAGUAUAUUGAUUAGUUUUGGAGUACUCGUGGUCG; conditions: 30 °C;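 further: selection with 25 µg/mL kanamycin versus none on LB agar overnight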
Mark 1.0 for reported self-splicing fitness (ln) of -2 or greater; mark 0.0 for anything smaller.

Please check the record UGGAAGCAAUAUUACGGCAG and state if its self-splicing fitness (ln) is at or above -2.
1.0

Check if self-splicing fitness (ln) >= -2 (inclusive). Item: AUUUAGCAAUAUUACGAUAA
1.0

Check this sequence for self-splicing fitness (ln) at or above -2: ACCAAGCAAUAUUACGUCAC
0.0

Quick check, self-splicing fitness (ln) >= -2? GCCUAGCAAUAUUACGCGAU
0.0

Hello, I need to know if GGGGAGCAAUAUUACGAUCA has measured self-splicing fitness (ln) not below -2. Thanks!
1.0

Has CUCCAGCAAUAUUACGAUGA a recorded self-splicing fitness (ln) greater than or equal to -2?
0.0

---

test: self-splicing fitness, log relative to wild type (ln ratio); higher = more splicing; Tetrahymena group I intron in knt gene, E. coli kanamycin selection, DiMSum; sequences stand for … in CUCUCU…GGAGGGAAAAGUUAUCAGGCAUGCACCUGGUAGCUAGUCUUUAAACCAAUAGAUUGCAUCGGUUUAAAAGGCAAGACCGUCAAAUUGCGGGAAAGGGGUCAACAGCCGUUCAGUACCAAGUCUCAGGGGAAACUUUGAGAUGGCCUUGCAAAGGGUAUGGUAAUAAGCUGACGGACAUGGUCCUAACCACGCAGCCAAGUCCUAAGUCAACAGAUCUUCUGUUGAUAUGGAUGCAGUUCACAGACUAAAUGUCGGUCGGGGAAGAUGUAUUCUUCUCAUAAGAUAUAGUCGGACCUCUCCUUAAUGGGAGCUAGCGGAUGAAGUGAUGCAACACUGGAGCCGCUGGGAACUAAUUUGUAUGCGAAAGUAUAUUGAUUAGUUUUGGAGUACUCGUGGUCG; settings: 30 °C
Threshold rule: self-splicing fitness (ln) greater than or equal to -1 is class 1; below that, class 0.

Check if self-splicing fitness (ln) >= -1 (inclusive). Item: AUACAGCAAUAUUACGUCUG
class 0

# bool: self-splicing fitness (ln) of AUUGAGCAAUAUUACGCACG >= -1
class 0

Reported self-splicing fitness (ln) reaches at least -1 for CAAAAGCAAUAUUACGGAGC ?
class 0

Could you tell me if the measured self-splicing fitness (ln) of ACAUAGCAAUAUUACGUGUC reaches -1 or more?
class 0

Form field: self-splicing fitness (ln) at least -1? Entry: UGAGAGCAAUAUUACGGGCA
class 1

Tell me whether self-splicing fitness (ln) is at least -1 here: UUUAAGCAAUAUUACGGUCA
class 0

Check this sequence for self-splicing fitness (ln) at or above -1: CUUCAGCAAUAUUACGACCU
class 0

Quick check, self-splicing fitness (ln) >= -1? AACUAGCAAUAUUACGGGCG
class 1

Determine whether this sequence has self-splicing fitness (ln) no lower than -1: ACUCAGCAAUAUUACGGAGA
class 1

Quick check, self-splicing fitness (ln) >= -1? CCUAAGCAAUAUUACGGUUA
class 0

Does GUGCAGCAAUAUUACGUCUU have a reported self-splicing fitness (ln) of at least -1?
class 0

Check this sequence for self-splicing fitness (ln) at or above -1: AUAAAGCAAUAUUACGAACG
class 1

---

experiment: self-splicing fitness, log relative to wild type (ln ratio); higher = more splicing; Tetrahymena group I intron in knt gene, E. coli kanamycin selection, DiMSum; sequences stand for … in CUCUCU…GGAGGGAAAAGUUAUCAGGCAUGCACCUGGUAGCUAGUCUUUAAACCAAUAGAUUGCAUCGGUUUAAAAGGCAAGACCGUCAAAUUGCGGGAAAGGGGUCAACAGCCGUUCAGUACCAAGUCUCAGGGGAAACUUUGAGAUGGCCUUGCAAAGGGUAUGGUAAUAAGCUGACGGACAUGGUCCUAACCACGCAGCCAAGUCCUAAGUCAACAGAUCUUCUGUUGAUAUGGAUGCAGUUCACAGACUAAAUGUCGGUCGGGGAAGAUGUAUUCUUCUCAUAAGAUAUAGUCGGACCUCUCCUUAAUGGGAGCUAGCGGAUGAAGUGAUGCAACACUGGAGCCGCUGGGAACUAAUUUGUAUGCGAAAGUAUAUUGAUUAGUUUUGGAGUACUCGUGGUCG; settings: 37 °C
Please enter Met where self-splicing fitness (ln) is greater than or equal to -0.8, and Not met where it is lower.

Quick check, self-splicing fitness (ln) >= -0.8? GAUUAGCAAUAUUACGAAAC
Not met

Given the entry ACGAAGCAAUAUUACGGACU , answer whether its self-splicing fitness (ln) meets or surpasses -0.8.
Met

Is reported self-splicing fitness (ln) greater than or equal to -0.8 here: ACGCAGCAAUAUUACGGACA
Not met

Can GAAAAGCAAUAUUACGGUUC be said to have self-splicing fitness (ln) at or above -0.8?
Not met

Answer whether self-splicing fitness (ln) of AGGAAGCAAUAUUACGUACC is greater than or equal to -0.8.
Met

Determine whether measured self-splicing fitness (ln) meets or exceeds -0.8 for GUUUAGCAAUAUUACGGAUC
Met

# bool: self-splicing fitness (ln) of UACCAGCAAUAUUACGGGUA >= -0.8
Not met

Could you please find out whether AACUAGCAAUAUUACGUGAG has self-splicing fitness (ln) that meets -0.8 or exceeds it?
Not met

Test whether the sequence CAUUAGCAAUAUUACGGCAC records self-splicing fitness (ln) of -0.8 or higher.
Not met

---

Can you tell me self-splicing fitness (ln) for the items I'm about to list?
experiment: self-splicing fitness, log relative to wild type (ln ratio); higher = more splicing; Tetrahymena group I intron in knt gene, E. coli kanamycin selection, DiMSum; sequences stand for … in CUCUCU…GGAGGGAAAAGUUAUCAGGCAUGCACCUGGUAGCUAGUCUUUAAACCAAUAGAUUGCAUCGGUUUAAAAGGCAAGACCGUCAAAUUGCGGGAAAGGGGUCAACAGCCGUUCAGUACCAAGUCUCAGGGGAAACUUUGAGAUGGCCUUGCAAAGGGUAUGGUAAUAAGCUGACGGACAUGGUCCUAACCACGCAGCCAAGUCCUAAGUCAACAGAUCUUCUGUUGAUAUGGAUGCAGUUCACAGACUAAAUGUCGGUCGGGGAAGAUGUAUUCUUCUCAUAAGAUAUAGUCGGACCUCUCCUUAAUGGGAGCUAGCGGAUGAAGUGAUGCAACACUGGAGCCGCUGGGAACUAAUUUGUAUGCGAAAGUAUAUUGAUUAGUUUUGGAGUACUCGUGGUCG; details: 37 °C
The reply should be a number, written without any unit.

# sequence GAAUAGCAAUAUUACGAGGG ; its self-splicing fitness (ln) = -3.25

response.value for CUUAAGCAAUAUUACGUUAU (field: self-splicing fitness (ln)) = -2.51

self-splicing fitness (ln) in this record for UAGCAGCAAUAUUACGUGGA : -1.46

Entry GAACAGCAAUAUUACGACAC , self-splicing fitness (ln) reported as 0.0163

Lab note: UUAUAGCAAUAUUACGUUUG gave self-splicing fitness (ln) of -1.14

Noted for CAAUAGCAAUAUUACGAAUA : its self-splicing fitness (ln) reads -3.26

For reference, reported self-splicing fitness (ln) for ACUGAGCAAUAUUACGAUUG stands at -3.25

Data point: AGAUAGCAAUAUUACGUAGU ; self-splicing fitness (ln) = -2.46

Note to self: self-splicing fitness (ln) recorded for UCCCAGCAAUAUUACGAUCC was -1.58

Measured self-splicing fitness (ln), UCUUAGCAAUAUUACGCUUU : -2.47

According to the records, this sequence UCACAGCAAUAUUACGCAAA displays self-splicing fitness (ln) of -2.91

What the record says about CGCCAGCAAUAUUACGGCCU : self-splicing fitness (ln) is 0.409

Entry under test: ACUUAGCAAUAUUACGUAUC . Its self-splicing fitness (ln) was -2.37

For this sequence ( GAAGAGCAAUAUUACGCGCA ), measured self-splicing fitness (ln) is -1.35

For this sequence ( AGGUAGCAAUAUUACGUCGG ), measured self-splicing fitness (ln) is -1.63

Field self-splicing fitness (ln) (entry UUAAAGCAAUAUUACGACGU ) reads 0.0726

CACCAGCAAUAUUACGGACC yielded self-splicing fitness (ln) of -1.72

self-splicing fitness (ln) in this record for AGAGAGCAAUAUUACGCCCA : -0.88

Notebook: AGUCAGCAAUAUUACGGCCA , self-splicing fitness (ln) read as -0.0722

Entry GUGCAGCAAUAUUACGUGUC , self-splicing fitness (ln) reported as -2.48

These data points were gathered from the supplement of paper PMC7877785.
